Provenance of the data: ChEMBL document CHEMBL1687761

# Km per record follows
system: Escherichia coli; assay: Activity of Escherichia coli XL1-Blue VIM-2 A64W mutant beta-lactamase by spectrophotometer
Could you give me the number in µM? Just the number is fine.

Dear colleague, I am looking for the recorded Km of the following compound: CC(C)(O/N=C(\C(=O)N[C@@H]1C(=O)N2C(C(=O)[O-])=C(C[n+]3ccccc3)CS[C@H]12)c1csc(N)n1)C(=O)O
40

Could you share which Km value was measured for CC(=O)OCC1=C(C(=O)O)N2C(=O)[C@@H](NC(=O)Cc3cccs3)[C@H]2SC1 ?
6

====

test system: Escherichia coli; assay: Ratio of Kcat to Km for Escherichia coli XL1-Blue VIM-2 A64W mutant beta-lactamase by spectrophotometer
Reported Endpoint: kcat/Km (M⁻¹ s⁻¹)
Record the value in M⁻¹ s⁻¹, omitting the unit from your answer.

Recorded results for 5 molecules are shown here.
{"columns": ["Smiles Notation", "Unit Symbol", "kcat/Km"],
 "data": [
  ["CO/N=C(\\C(=O)N[C@@H]1C(=O)N2C(C(=O)O)=C(COC(C)=O)CS[C@H]12)c1csc(N)n1", "M⁻¹ s⁻¹", "3.7e+06"],
  ["CC(=O)OCC1=C(C(=O)O)N2C(=O)[C@@H](NC(=O)Cc3cccs3)[C@H]2SC1", "M⁻¹ s⁻¹", "2.2e+07"],
  ["O=C(Cc1cccs1)N[C@@H]1C(=O)N2C(C(=O)O)=C(/C=C/c3ccc([N+](=O)[O-])cc3[N+](=O)[O-])CS[C@H]12", "M⁻¹ s⁻¹", "2.7e+07"],
  ["C[C@@H](O)[C@H]1C(=O)N2C(C(=O)O)=C(S[C@@H]3CN[C@H](C(=O)N(C)C)C3)[C@H](C)[C@H]12", "M⁻¹ s⁻¹", "3e+06"],
  ["CC(C)(O/N=C(\\C(=O)N[C@@H]1C(=O)N2C(C(=O)[O-])=C(C[n+]3ccccc3)CS[C@H]12)c1csc(N)n1)C(=O)O", "M⁻¹ s⁻¹", 18000]
]}

Request: kcat/Km, test system Escherichia coli, entry C[C@@H](O)[C@H]1C(=O)N2C(C(=O)O)=C(SCCNC=N)C[C@H]12
2.9e+06

Can you look up kcat/Km on Escherichia coli for CO/N=C(\C(=O)N[C@@H]1C(=O)N2C(C(=O)[O-])=C(C[N+]3(C)CCCC3)CS[C@H]12)c1csc(N)n1 ?
120000

====

system: Escherichia coli; experiment: Ratio of Kcat to Km for Escherichia coli XL1-Blue wild-type IMP-1 beta-lactamase by spectrophotometer
Reported Endpoint: kcat/Km

Below are worked cases with known answers.
{"columns": ["Smiles Notation", "Result"],
 "data": [
  ["O=C(Cc1cccs1)N[C@@H]1C(=O)N2C(C(=O)O)=C(/C=C/c3ccc([N+](=O)[O-])cc3[N+](=O)[O-])CS[C@H]12", "1.4e+07 M⁻¹ s⁻¹"],
  ["CO/N=C(\\C(=O)N[C@@H]1C(=O)N2C(C(=O)[O-])=C(C[N+]3(C)CCCC3)CS[C@H]12)c1csc(N)n1", "660000 M⁻¹ s⁻¹"],
  ["CC(C)(O/N=C(\\C(=O)N[C@@H]1C(=O)N2C(C(=O)[O-])=C(C[n+]3ccccc3)CS[C@H]12)c1csc(N)n1)C(=O)O", "180000 M⁻¹ s⁻¹"]
]}

With those in mind, consider the next molecule.
Record request: kcat/Km value, item C[C@@H](O)[C@H]1C(=O)N2C(C(=O)O)=C(SCCNC=N)C[C@H]12
2.7e+06 M⁻¹ s⁻¹
